# ASSAYED_TARGET: CD64 (FcgRI) (Homo sapiens, UniProt P12314)
# Sequence (P12314 16-374): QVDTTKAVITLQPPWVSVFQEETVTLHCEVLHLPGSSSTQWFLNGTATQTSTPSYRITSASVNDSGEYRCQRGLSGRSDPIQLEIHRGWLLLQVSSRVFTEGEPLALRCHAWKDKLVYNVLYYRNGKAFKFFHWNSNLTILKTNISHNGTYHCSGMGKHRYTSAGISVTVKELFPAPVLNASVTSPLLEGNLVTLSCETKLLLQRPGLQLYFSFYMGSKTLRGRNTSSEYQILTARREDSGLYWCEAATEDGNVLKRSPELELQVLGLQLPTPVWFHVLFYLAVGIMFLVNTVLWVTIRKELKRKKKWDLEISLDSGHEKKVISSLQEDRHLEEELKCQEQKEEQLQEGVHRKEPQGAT
# METHOD: SPR, antibody binding to anti-his Fab captured FcgR-his (% Rmax)
# CONDITION: 1 μM antibody
PROPERTY_LABEL: % Rmax hCD64 (%)
One number for each entry, in %.

Below, each entry is followed by its recorded % Rmax hCD64 result.
MOLECULE: mAb10-IgG2.3G1-AY-V27 (protein, left off: another chain or arm of the molecule) constant: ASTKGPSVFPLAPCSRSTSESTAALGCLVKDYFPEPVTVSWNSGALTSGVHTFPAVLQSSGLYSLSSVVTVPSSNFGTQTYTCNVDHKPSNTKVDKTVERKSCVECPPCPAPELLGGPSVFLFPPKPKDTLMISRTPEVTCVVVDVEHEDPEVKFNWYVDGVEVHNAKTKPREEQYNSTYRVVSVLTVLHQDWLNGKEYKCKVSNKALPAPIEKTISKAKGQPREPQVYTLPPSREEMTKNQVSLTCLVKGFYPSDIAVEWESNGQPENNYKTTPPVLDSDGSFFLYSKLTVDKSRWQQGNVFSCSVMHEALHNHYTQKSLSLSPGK
% Rmax hCD64 / %: 69
--
MOLECULE: mAb7-IgG2.3G1-AY-V27 (protein, left off: another chain or arm of the molecule) constant: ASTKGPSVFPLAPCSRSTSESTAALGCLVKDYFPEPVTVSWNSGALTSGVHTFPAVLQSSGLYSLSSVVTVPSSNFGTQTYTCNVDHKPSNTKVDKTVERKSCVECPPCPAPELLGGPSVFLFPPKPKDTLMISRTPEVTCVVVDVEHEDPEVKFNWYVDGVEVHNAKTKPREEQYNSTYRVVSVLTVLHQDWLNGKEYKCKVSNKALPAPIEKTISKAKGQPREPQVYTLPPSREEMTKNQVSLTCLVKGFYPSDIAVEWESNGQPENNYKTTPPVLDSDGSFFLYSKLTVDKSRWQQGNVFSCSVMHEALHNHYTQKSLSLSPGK
% Rmax hCD64 / %: 84
--
MOLECULE: mAb6-IgG2.5 (protein, left off: another chain or arm of the molecule) constant: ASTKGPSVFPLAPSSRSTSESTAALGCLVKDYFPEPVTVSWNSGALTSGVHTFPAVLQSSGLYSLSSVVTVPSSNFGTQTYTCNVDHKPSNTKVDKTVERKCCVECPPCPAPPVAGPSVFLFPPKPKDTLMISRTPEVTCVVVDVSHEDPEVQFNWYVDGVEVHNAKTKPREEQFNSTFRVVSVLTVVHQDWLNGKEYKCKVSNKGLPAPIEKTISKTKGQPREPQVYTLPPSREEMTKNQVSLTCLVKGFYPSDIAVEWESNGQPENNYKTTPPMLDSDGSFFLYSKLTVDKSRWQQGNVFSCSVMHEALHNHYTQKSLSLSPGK
% Rmax hCD64 / %: 3

Fill blank: measured % Rmax hCD64 of the molecule mAb11-IgG2.3 (protein, left off: another chain or arm of the molecule) constant: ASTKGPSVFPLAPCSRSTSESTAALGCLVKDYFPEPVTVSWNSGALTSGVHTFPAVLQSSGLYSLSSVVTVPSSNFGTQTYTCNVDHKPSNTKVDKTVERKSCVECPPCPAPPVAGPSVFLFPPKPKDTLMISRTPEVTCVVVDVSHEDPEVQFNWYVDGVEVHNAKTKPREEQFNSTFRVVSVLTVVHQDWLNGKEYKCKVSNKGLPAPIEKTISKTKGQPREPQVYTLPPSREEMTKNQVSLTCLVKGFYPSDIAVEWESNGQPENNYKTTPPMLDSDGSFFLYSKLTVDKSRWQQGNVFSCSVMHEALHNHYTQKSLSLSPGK is ____.
2
